# TARGET SYSTEM: acetylcholine receptor (Homo sapiens, UniProt P02708)
# Sequence (P02708 21-457): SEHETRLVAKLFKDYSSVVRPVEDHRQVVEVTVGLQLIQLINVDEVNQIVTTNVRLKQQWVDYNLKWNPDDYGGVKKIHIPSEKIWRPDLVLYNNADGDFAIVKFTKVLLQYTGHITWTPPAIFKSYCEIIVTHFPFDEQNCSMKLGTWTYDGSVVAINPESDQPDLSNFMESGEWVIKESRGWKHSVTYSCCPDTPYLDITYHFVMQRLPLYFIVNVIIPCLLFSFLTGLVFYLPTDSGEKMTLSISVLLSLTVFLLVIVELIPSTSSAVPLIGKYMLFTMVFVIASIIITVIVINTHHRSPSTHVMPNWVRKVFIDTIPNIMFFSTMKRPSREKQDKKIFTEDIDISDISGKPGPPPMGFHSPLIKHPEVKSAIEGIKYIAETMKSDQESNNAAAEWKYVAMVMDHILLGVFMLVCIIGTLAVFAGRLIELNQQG
# PROTOCOL: SPR binding affinity (RU) of optimized 5mer/6mer/7mer peptides, Examples 6-7
# CONDITION DETAILS: SPR, peptides tested at 10 μM; 6mer-1 Top sequence (top combinations)
OBSERVED PROPERTY: Binding affinity (Ru)
Report as a plain number; the unit Ru is understood.

Please review the entries below; each comes with its answer.
6mer-1-22 (RKRLCK) = 126
6mer-1-60 (RKSIQK) = 139
6mer-1-65 (KKSRRR) = 121
6mer-1-28 (RRWISK) = 125
6mer-1-189 (KKSYSK) = 137
6mer-1-150 (RKRQCR) = 142

Lookup: What is its Binding affinity for acetylcholine receptor (Homo sapiens, UniProt P02708)? Entry: 6mer-1-45 (RKGLTK)
Found: 145

Lookup: What is its Binding affinity for acetylcholine receptor (Homo sapiens, UniProt P02708)? Entry: 6mer-1-134 (KKSIYR)
Found: 128

Lookup: What is its Binding affinity for acetylcholine receptor (Homo sapiens, UniProt P02708)? Entry: 6mer-1-139 (KRRFLR)
Found: 122

Lookup: What is its Binding affinity for acetylcholine receptor (Homo sapiens, UniProt P02708)? Entry: 6mer-1-59 (KRLQCK)
Found: 145

Lookup: What is its Binding affinity for acetylcholine receptor (Homo sapiens, UniProt P02708)? Entry: 6mer-1-176 (KKVYCK)
Found: 121

Lookup: What is its Binding affinity for acetylcholine receptor (Homo sapiens, UniProt P02708)? Entry: 6mer-1-132 (RRQVYR)
Found: 153

Lookup: What is its Binding affinity for acetylcholine receptor (Homo sapiens, UniProt P02708)? Entry: 6mer-1-110 (KRQLLK)
Found: 121

Lookup: What is its Binding affinity for acetylcholine receptor (Homo sapiens, UniProt P02708)? Entry: 6mer-1-137 (RRLFRR)
Found: 121

Lookup: What is its Binding affinity for acetylcholine receptor (Homo sapiens, UniProt P02708)? Entry: 6mer-1-85 (RKRQCK)
Found: 121

Lookup: What is its Binding affinity for acetylcholine receptor (Homo sapiens, UniProt P02708)? Entry: 6mer-1-83 (RRSFLR)
Found: 146

Lookup: What is its Binding affinity for acetylcholine receptor (Homo sapiens, UniProt P02708)? Entry: 6mer-1-12 (KKQICK)
Found: 128

---

# TARGET SYSTEM: acetylcholine receptor (Homo sapiens)
# PROTOCOL: SPR binding affinity (RU) of optimized 5mer/6mer/7mer peptides, Examples 6-7
# CONDITION DETAILS: 6mer-1 Top sequence; SPR; peptides tested at 10 μM
OBSERVED PROPERTY: Binding affinity (Ru)
Report as a plain number; the unit Ru is understood.

6mer-1-272 (KKQVSR) = 139

Lookup: Entry under review: 6mer-1-348 (RKQRLK) . Reported Binding affinity?
Found: 142

Lookup: Entry under review: 6mer-1-228 (KRVIYK) . Reported Binding affinity?
Found: 139

Lookup: Entry under review: 6mer-1-330 (RKVQRK) . Reported Binding affinity?
Found: 148

---

Reported Binding affinity values follow for various substances
# TARGET SYSTEM: acetylcholine receptor (Homo sapiens)
# PROTOCOL: SPR binding affinity (RU) of optimized 5mer/6mer/7mer peptides, Examples 6-7
# CONDITION DETAILS: SPR, peptides tested at 10 μM; 6mer-1 Top sequence
Report as a plain number; the unit Ru is understood.

6mer-1-404 (KKQRQK) = 137
6mer-1-558 (RRLIQR) = 139
6mer-1-598 (RKWLSK) = 142
6mer-1-440 (KRVYSK) = 153
6mer-1-513 (RKQIRR) = 154

Okay, next one:
Lookup: Entry under review: 6mer-1-491 (RKLRLR) . Reported Binding affinity?
Found: 137
